Every entry's value here was drawn from PubChem BioAssay (NCI).

test system: SN12C renal; test: NCI-60 one-dose screen, 48 h; conditions: 10 µM unless noted
This is part of a sample that, as a whole, favours compounds with a hit. Of some 83,000 tested, about 20% had one in any assay. Activity calls are given as the source filed them. Rule for the calls: active = growth percent below 10; inactive = the rest.
Choose one outcome from this list and give only that: active, inactive

| MOLECULE | DISCRETE LABEL |
| --- | --- |
| C=C1CC[C@@H]2[C@](C)(COC(C)=O)[C@H](OC(C)=O)CC[C@@]2(C)[C@@H]1CC(NCc1ccc(F)cc1)C1=CCOC1=O (stereo not given in full) | inactive |
| COc1cc2nc3cc([N+](=O)[O-])ccc3c(NCCCNCC(C)(C)O)c2cc1OC | active |
| COc1ccc(C(=O)c2sc3nc4c(c(C(F)(F)F)c3c2N)CN(C(C)=O)CC4)cc1OC | inactive |

## Task Please state the recorded outcome for this molecule: CCN(CC)CCCC(C)Nc1ccnc2c(OC)cccc12 (stereo not given)
## Result inactive

## Task Please state the recorded outcome for this molecule: CCC(c1ccccc1)C(CC)c1ccc(O)c(O)c1 (stereo not given)
## Result inactive
